Data origin, for the record: patent US20220259593A1

# Tested on: K562 CRISPRi cells
# assay procedure: Constant region variant library pooled growth screen, K562
# Format: cell-based, human
# run conditions: sgRNA constant region variants; activity relative to the original, un-modified constant region cr995
readout type: Mean relative activity
// return a plain number; no unit text

Please report the measured Mean relative activity for cr394 (nucleic acid, listed as DNA, chemistry not fully specified) guide: GTTTAAGAGCTAAGCTGGAAACAGCATAGCAAGTTTAAATAAGGCTAGTCCGTTATCAACTTGAAACAGTGGCACCGAGTCGGTGCT
1.055

Identify measured Mean relative activity corresponding to cr505 (nucleic acid, listed as DNA, chemistry not fully specified) guide: GTTTAAGAGCTAAGCTGGAAACAGCATTGCAAGTTTAAATAGGGCTAGTCCGTTATCAACTTGAAAAAGTGGCACCGATTCGGTGCT
0.7459

Look up and state reported Mean relative activity for cr135 (nucleic acid, listed as DNA, chemistry not fully specified) guide: GTTTAAGAGCTAAGCTGGAAACAGCATAGCAAGTTTAAATAACGCTAGTCGGTTATCAAATTGAAAAATTGGCGCCGAGTCGGCGCT
−0.00878

Identify measured Mean relative activity associated with cr944 (nucleic acid, listed as DNA, chemistry not fully specified) guide: GTTTAAGAGCTAAGCTGGAAACAGCATAGCAAGTTTAAATAAGGCTAGTCCGTTATCAACTCGAAAGAGTGGTACCAAGTTGGTACT
1.065

Hello, please tell me recorded Mean relative activity for this one: cr829 (nucleic acid, listed as DNA, chemistry not fully specified) guide: GTTTAAGAGCTAAGCTGGAAACAGCATACCAAGTTTAAATAAGGCTAGTCCGTTATCAACTTGAAAAAGTGGCACCGAGTCGGTGCT
0.8571

Indicate the recorded Mean relative activity value for this molecule: cr474 (nucleic acid, listed as DNA, chemistry not fully specified) guide: GTTTAAGAGCTAAGCTGGAAACAGCATAGCAAGTTTAAATAAGGCTAGTCCGTTATCAACTTGAAAAAGTGGCACCTAGTCGGTGCT
0.7254

Supply recorded Mean relative activity for cr933 (nucleic acid, listed as DNA, chemistry not fully specified) guide: GTTTAAGAGCTAAGCTGGAAACAGCATAGCAAGGTTAAATAAGGCTAGTCCGTTATCAACTTGAAAAAGTGTCACCGAGTCGGTGAT here.
0.0286
